Field: pIC50. Provide a value for each of the molecules that follow.
Units for pIC50: none; it is -log10 of a concentration expressed in mol/L.

Enter measured pIC50, system EP2 (Homo sapiens), for the molecule shown: COc1cc(-c2ccc(Cn3ccc4c(F)ccc(C(=O)NC5CC6(C5)CC(C(=O)O)C6)c43)cc2)ccc1F (stereo not shown)
7.06

Enter measured pIC50, system EP2 (Homo sapiens), for the molecule shown: COc1cc(C#N)cc(-c2ccc(Cn3ccc4c(F)ccc(C(=O)NC5CC6(C5)CC(C(=O)O)C6)c43)cc2)n1 (stereo not shown)
7.29

Enter measured pIC50, system EP2 (Homo sapiens), for the molecule shown: O=C(NC1CC2(C1)CC(C(=O)O)C2)c1ccc(Cl)c2cnn(Cc3ccc(N4CC5CC5(C(F)F)C4)c(F)c3)c12 (racemic)
7.25

Enter measured pIC50, system EP2 (Homo sapiens), for the molecule shown: CCOc1nccc(-c2ccc(Cn3ccc4c(F)ccc(C(=O)NC5CC6(C5)CC(C(=O)O)C6)c43)cc2)n1 (stereo not shown)
7.02

Enter measured pIC50, system EP2 (Homo sapiens), for the molecule shown: O=C(NC1CC2(C1)CC(C(=O)O)C2)c1ccc(F)c2ccn(Cc3ccc(-c4ccnc(C(F)F)c4)cc3)c12 (stereo not shown)
7.32

Enter measured pIC50, system EP2 (Homo sapiens), for the molecule shown: COc1ccc(-c2ccc(Cn3ccc4c(F)ccc(C(=O)NC5CC6(CC(CC(=O)O)C6)C5)c43)cc2)cn1 (stereo not shown)
7.60

Enter measured pIC50, system EP2 (Homo sapiens), for the molecule shown: CNC(=O)c1cccc(-c2ccc(Cn3ccc4c(F)ccc(C(=O)NC5CC6(C5)CC(C(=O)O)C6)c43)cc2)n1 (stereo not shown)
7.27

Enter measured pIC50, system EP2 (Homo sapiens), for the molecule shown: COc1ccc(-c2ccc(Cn3ccc4c(F)ccc(C(=O)NC5CC6(C5)CC(C(=O)O)C6)c43)cc2)cc1F (stereo not shown)
7.10

Enter measured pIC50, system EP2 (Homo sapiens), for the molecule shown: O=C(NC1CC2(C1)CC(C(=O)O)C2)c1ccc(F)c2ccn(Cc3ccc4cc(Br)ccc4c3)c12 (stereo not shown)
7.43

Enter measured pIC50, system EP2 (Homo sapiens), for the molecule shown: CCOc1cc(-c2ccc(Cn3ccc4c(OC)ncc(C(=O)NC5CC6(C5)CC(C(=O)O)C6)c43)cc2)ccn1 (stereo not shown)
7.01

Enter measured pIC50, system EP2 (Homo sapiens), for the molecule shown: CNC(=O)c1ccc(-c2ccc(Cn3ccc4c(F)ccc(C(=O)NC5CC6(C5)CC(C(=O)O)C6)c43)cc2)cn1 (stereo not shown)
7.05

Enter measured pIC50, system EP2 (Homo sapiens), for the molecule shown: CCOc1cc(-c2ccc(C(C)n3ncc4cccc(C(=O)NC5CC6(C5)CC(C(=O)O)C6)c43)cc2)ccn1 (racemic)
7.16

Enter measured pIC50, system EP2 (Homo sapiens), for the molecule shown: COc1ccc2cc(-c3ccc(Cn4ncc5c(Cl)ccc(C(=O)NC6CC7(CC(CC(=O)O)C7)C6)c54)cc3)ccc2n1 (stereo not shown);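 also: functional calcium flux assay in stably transfected HEK293 cells expressing EP2 coupled via a promiscuous G protein, clytin luminescence read as area under the curve, 30 min compound preincubation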
7.09
